Target: Adenosine receptor A1 (Homo sapiens, UniProt P30542)
Sequence (P30542 whole entry): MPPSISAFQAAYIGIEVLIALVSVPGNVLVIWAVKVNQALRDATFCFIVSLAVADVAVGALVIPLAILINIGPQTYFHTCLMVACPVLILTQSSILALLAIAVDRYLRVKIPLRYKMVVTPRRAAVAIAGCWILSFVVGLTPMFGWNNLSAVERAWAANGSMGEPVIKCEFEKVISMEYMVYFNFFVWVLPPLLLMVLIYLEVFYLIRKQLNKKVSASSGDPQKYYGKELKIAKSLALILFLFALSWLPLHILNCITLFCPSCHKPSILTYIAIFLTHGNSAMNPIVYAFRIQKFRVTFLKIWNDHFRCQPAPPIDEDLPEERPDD
Endpoint name: IC50

structure_smiles=CNc1ncnc2c1ncn2Cc1ccccc1F.CS(=O)(=O)O target_system="Adenosine receptor A1 (Homo sapiens, UniProt P30542)" reading="> 100 µM"

###

Target: Phosphodiesterase 3 (Homo sapiens, UniProt Q14432+Q13370)
Assay: Inhibition of phosphodiesterase 3 at 1 uM cAMP
Assay type: protein assay
Listing of recorded IC50 by entry.
Endpoint name: IC50 (µM)

structure_smiles=CNc1ncnc2c1nc(C)n2Cc1ccccc1F.CS(=O)(=O)O endpoint_name=IC50 result_unit=µM value_comparator=> reading=200
structure_smiles=Nc1ncnc2c1ncn2Cc1ccccc1 endpoint_name=IC50 result_unit=µM value_comparator=> reading=200
structure_smiles=CNc1ncnc2c1ncn2Cc1ccccc1.CS(=O)(=O)O endpoint_name=IC50 result_unit=µM value_comparator== reading=339
structure_smiles=CNc1nc(C(F)(F)F)nc2c1ncn2C endpoint_name=IC50 result_unit=µM value_comparator== reading=331
structure_smiles=Nc1nc(C(F)(F)F)nc2c1ncn2Cc1ccccc1 endpoint_name=IC50 result_unit=µM value_comparator== reading=101
structure_smiles=CNc1nc(-c2ccccc2)nc2c1ncn2Cc1ccccc1F.CS(=O)(=O)O endpoint_name=IC50 result_unit=µM value_comparator=> reading=200
